Where these numbers come from: paper PMC7587356

biological target: UniProt P0DTD1; experiment: biochemical; format: biochemical; details: LOPAC1280 primary screen with protease, 5 µM compound, replicate 1
Would you mind telling me the reported Replicate_1 (LOPAC_screen_w_protease) of each entry?
One number for each entry.

Solved entries (count: 5):
CC(=O)C(C)=NO [2,3-Butanedione monoxime] : 1.791
C/C(O)=C(\C#N)C(=O)Nc1cc(Br)ccc1Br [LFM-A13] : -0.001982
O=C(O)[C@H]1C[C@H](C(=O)O)N1 (relative stereo) [trans-Azetidine-2,4-dicarboxylic acid] : 1.338
N[C@@H](Cc1ccc(O)c(I)c1)C(=O)O [3-Iodo-L-tyrosine] : 1.662
CC1(C)C(=O)N(CCN2CCC(C(=O)c3ccc(F)cc3)CC2)c2ccccc21.Cl [LY-310,762 hydrochloride] : 1.617

# batch: return Replicate_1 (LOPAC_screen_w_protease) for each of the 2 molecules below
1. NCCc1c[nH]c2ccc(C(N)=O)cc12.O=C(O)/C=C\C(=O)O [5-Carboxamidotryptamine maleate]
2. Cl.c1ccc2nc(C3=NCCN3)ccc2c1 [BU224 hydrochloride]

Result:
1: 2.928; 2: 1.353

Ask: Value lookup for Replicate_1 (LOPAC_screen_w_protease); key = Br.CCCN(CCC)C1CCc2cccc(O)c2C1 (racemic) [(±)-8-Hydroxy-DPAT hydrobromide]
Result: 3.36

----------
biological target: SARS-CoV-2 3CLpro (Severe acute respiratory syndrome coronavirus 2, UniProt P0DTD1); assay: biochemical; assay type: biochemical; conditions: 4 h, sheet LOPAC_screen_w_protease; primary screen of LOPAC1280 at 5 µM with protease; replicate 1; read-out: Replicate_1
Where a name gives a salt, the structure may show the parent alone.
Decision: inhibition at 5 µM >= 3% yields Yes, all other cases yield No.

CC(=O)O[C@H]1C[C@@H]2CC[C@@H]3[C@H](CC[C@@]4(C)[C@H]3C[C@H]([N+]3(C)CCCCC3)[C@@H]4OC(C)=O)[C@@]2(C)C[C@@H]1[N+]1(C)CCCCC1 [Pancuronium bromide] : No
NC(=O)CN1CCCC1=O : Yes
Cc1ncc(CNC(=O)N(CCCl)N=O)c(N)n1 [Nimustine hydrochloride] : Yes
CN1C[C@H](CNC(=O)OCc2ccccc2)C[C@@H]2c3cccc4c3c(cn4C)C[C@H]21 : No
O=C(O)CC[N+](=O)[O-] : No

Ask: Reported inhibition at 5 µM reaches at least 3% for C=CCN1CC[C@]23c4c5ccc(O)c4O[C@H]2C(=O)CC[C@@]3(O)[C@H]1C5 [Naloxone hydrochloride] ?
Result: Yes

----------
biological target: SARS-CoV-2 3CLpro (Severe acute respiratory syndrome coronavirus 2); test: biochemical; assay type: biochemical; details: with 0.01% Triton X-100; mean ± SD of triplicate; 4 h, 30 °C; read-out: A) EC50 with Triton X-100
reported_metric: log10 EC50 (log10 of the value in nM)
// do not treat as linear: log10 of EC50, unit nM

Solved entries (count: 7):
CC(C)(C)c1ccc(S(=O)(=O)/C=C/C#N)cc1 [Bay 11-7085, reference compound] : 3.21
Oc1ccc(Cn2cc[nH]c2=S)cc1 : 3.85
C=CCN1CCc2cccc3c2[C@H]1Cc1ccc(O)c(O)c1-3 [R(−)-N-Allylnorapomorphine] : 2.54
NC(Cc1cc(O)c(O)cc1O)C(=O)O (racemic) [6-Hydroxy-dl-DOPA, reference compound] : 3.12
Oc1cc2c(cc1O)[C@H]1c3ccccc3CN[C@@H]1CC2 (racemic) [Dihydrexidine] : 2.85
C[N+](C)(C)CCC(=O)c1cccc2ccccc12 : 2.36
Cc1ccc(S(=O)(=O)N[C@@H](CCCCN)C(=O)CCl)cc1 : 4.03

Ask: Value lookup for log10 EC50; key = Oc1cc2c(c(Cl)c1O)CCNCC2c1ccccc1 (racemic) [(±)-6-Chloro-PB]
Result: 3.16

----------
Would you mind telling me the reported inhibition at 5 µM of each entry?
biological target: SARS-CoV-2 3CLpro (Severe acute respiratory syndrome coronavirus 2, UniProt P0DTD1); test: biochemical; assay type: biochemical; details: 4 h, read-out: mean
Structures can show the parent of a compound that is named as a salt.
Numbers only, in %.

# batch: return inhibition at 5 µM for each of the 4 compounds below
1. CNC[C@H](O)c1ccc(O)c(O)c1 [(-)-Epinephrine bitartrate]
2. COc1ccc(/C=C/C(=O)Nc2ccccc2C(=O)O)cc1OC
3. Clc1ccccc1C(c1ccccc1)(c1ccccc1)n1ccnc1
4. O=C1Cc2c([nH]c3ccc(Br)cc23)-c2ccccc2N1

Result:
[3.11, -0.784, 3.07, 2.49]

Ask: Value lookup for inhibition at 5 µM; key = NCCCNCCCCNCCCN [Spermine tetrahydrochloride]
Result: 4.09

----------
Would you mind telling me the reported mean of each entry?
molecular target: SARS-CoV-2 3CLpro (Severe acute respiratory syndrome coronavirus 2); assay: biochemical; type: biochemical; set-up: unit not given here
Give bare numbers.

C=CCN1C[C@H](C)N([C@H](c2ccc(C(=O)N(CC)CC)cc2)c2cccc(OC)c2)C[C@H]1C : 0.6198
CNCC(O)c1ccc(O)c(O)c1.Cl (racemic) [(±)-Epinephrine hydrochloride] : 2.31

# batch: return mean for each of the 5 compounds below
1. Cl.c1ccc([C@H]2CN3CCSC3=N2)cc1 [(-)-Tetramisole hydrochloride]
2. CCCCCCCCCCCCCCCCOCC(COCC(F)(F)F)OP(=O)(O)OC (stereo not drawn)
3. Cl.O=C(O)C1=CCCN(CCON=C(c2ccccc2)c2ccccc2)C1 [NO-711 hydrochloride]
4. O=[N+]([O-])c1cc2nc(O)c(O)nc2cc1[N+](=O)[O-]
5. S=C=Nc1ccc2oc(C3=NCCN3)cc2c1

Result:
0.6536
0.5871
0.272
2.546
2.931

# batch: return mean for each of the 2 compounds below
1. C[N+](C)(C)CCO.[Br-] [Choline bromide]
2. Cl.O=S(=O)(c1cccc2c(I)cccc12)N1CCCNCC1

Result:
1: 2.905; 2: 3.614

----------
Would you mind telling me the reported inhibition at 5 µM of each entry?
molecular target: UniProt P0DTD1; test: biochemical; assay type: biochemical; conditions: 4 h, read-out: Replicate_2
Structures can show the parent of a compound that is named as a salt.
Answers are plain numbers, in %.

O=c1c(-c2ccc(O)cc2)coc2cc(O)ccc12 [Daidzein] : 1.03

# batch: return inhibition at 5 µM for each of the 7 molecules below
1. Cc1ccc(Cl)c(Nc2ccccc2C(=O)O)c1Cl [Meclofenamic acid sodium]
2. CS(=O)(=O)Nc1ccc([N+](=O)[O-])cc1Oc1ccccc1 [Nimesulide]
3. NCCCNCCCCNCCCN [Spermine tetrahydrochloride]
4. c1ccc(C2CN3CCSC3=N2)cc1 (stereo not drawn) [Tetramisole hydrochloride]
5. CCCCc1oc2ccccc2c1C(=O)c1cc(I)c(OCCN(CC)CC)c(I)c1 [Amiodarone hydrochloride]
6. Oc1ccc2c3c1O[C@H]1[C@@H](O)CC[C@@]4(O)[C@@H](C2)N(CC2CCC2)CC[C@]314 [Nalbuphine hydrochloride]
7. N=C(N)N1CCc2ccccc2C1 [Debrisoquin sulfate]

Result:
1. 5.52
2. 4.45
3. 4.24
4. -2.01
5. 4.04
6. 4.27
7. 3.04

Ask: Query for UniProt P0DTD1: what inhibition at 5 µM does the record show for O=c1cc(-c2ccc(O)c(O)c2)oc2cc(O)cc(O)c12 [luteolin, reference compound] ?
Result: 1.72

----------
biological target: SARS-CoV-2 3CLpro (Severe acute respiratory syndrome coronavirus 2, UniProt P0DTD1); assay: biochemical; assay type: biochemical; parameters: unit not given here; conditions: sheet LOPAC_screen_w_protease; LOPAC1280 primary screen with protease, 5 µM compound; replicate 1
# y = Replicate_1 below 4 (exclusive); n = Replicate_1 at/above 4

Cl.O=C(CCCN1CCC2(CC1)C(=O)N(CCc1ccc(N=C=S)cc1)CN2c1ccccc1)c1ccc(F)cc1 : n

Ask: API: query returns whether the molecule falls strictly under 4 in Replicate_1. Query: Cl.Cl.Cl.Ic1ccc(N2CCN(Cc3c[nH]c4ncccc34)CC2)cc1 [L-750,667 trihydrochloride]
Result: y

Ask: API: query returns whether the molecule falls strictly under 4 in Replicate_1. Query: N[C@@H](COP(=O)(O)O)C(=O)O
Result: y

Ask: API: query returns whether the molecule falls strictly under 4 in Replicate_1. Query: O=S(=O)(O)C1CCNCC1
Result: n

Ask: API: query returns whether the molecule falls strictly under 4 in Replicate_1. Query: N[C@@H](Cc1ccc(O)c(O)c1)C(=O)O [L-3,4-Dihydroxyphenylalanine]
Result: n

Ask: API: query returns whether the molecule falls strictly under 4 in Replicate_1. Query: CNc1ncnc2c1ncn2[C@H]1C[C@H](OP(=O)(O)O)[C@@H](COP(=O)(O)O)O1
Result: n

Ask: API: query returns whether the molecule falls strictly under 4 in Replicate_1. Query: O=C(O)/C=C/C(=O)O.O=C(O)/C=C/C(=O)O.O=C(O)/C=C/C(=O)O.O=C1CCCN1CC#CCN1CCCC1.O=C1CCCN1CC#CCN1CCCC1 [Oxotremorine sesquifumarate salt]
Result: y

Ask: API: query returns whether the molecule falls strictly under 4 in Replicate_1. Query: Cc1nnc2ccc(-c3cccc(C(F)(F)F)c3)nn12
Result: y
